B1: CLCN6 (parent)
chain: MAGCRGSLCCCCRWCCCCGERETR

# Variants of: B1
# protocol summary: protein stability index of a GFP-peptide fusion (GPS, HEK-293T) (PSI 1-6); higher = more stable;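 note: lentivirally expressed fusions sorted by FACS into six bins by GFP to DsRed ratio, PSI derived from sequencing read proportions per bin multiplied by bin number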
# assay setup: c terminus: a fixed tail appended
quantity name: protein stability index

| ordered residues | endpoint result |
| --- | --- |
| MAGCRGSLCCCCRWCCCCGERETL | 2.73 |
| MAGCKGSLCCCCRWCCCCGERETR | 3.21 |
| MAGCRGSLCCCCRWCCCCGEREQR | 1.8 |
| MAGCRESLCCCCRWCCCCGERETR | 2.38 |
| MAGCRGSLCCCCAWCCCCGERETR | 2.01 |
| MAGCRGSLCCCCRWCCCCGRRETR | 2.33 |
| MAGCRISLCCCCRWCCCCGERETR | 2.06 |
| MFGCRGSLCCCCRWCCCCGERETR | 2.2 |
| MAGCRGSLCCCCRWCCCVGERETR | 1.3 |
| MAGCRGSLCQCCRWCCCCGERETR | 1.54 |
| MAGCRASLCCCCRWCCCCGERETR | 1.83 |

This collection of values is drawn from the supplement of paper PMC10567573.
